Ref: patent US9550763B2

# TARGET_OR_TEST_SYSTEM: human P2X3 receptor (Homo sapiens (Human), UniProt P56373)
# Sequence (P56373 whole entry): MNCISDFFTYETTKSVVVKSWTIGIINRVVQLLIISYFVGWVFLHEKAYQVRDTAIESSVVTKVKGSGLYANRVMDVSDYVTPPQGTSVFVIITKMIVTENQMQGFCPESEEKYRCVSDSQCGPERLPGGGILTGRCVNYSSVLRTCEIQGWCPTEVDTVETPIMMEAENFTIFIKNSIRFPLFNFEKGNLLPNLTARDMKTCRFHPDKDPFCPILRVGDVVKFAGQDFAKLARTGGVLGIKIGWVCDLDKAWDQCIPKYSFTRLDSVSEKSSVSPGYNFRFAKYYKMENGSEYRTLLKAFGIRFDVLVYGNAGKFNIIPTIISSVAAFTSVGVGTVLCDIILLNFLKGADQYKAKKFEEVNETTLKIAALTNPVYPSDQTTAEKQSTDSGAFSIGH
# ASSAY_REMARKS: Evaluation of human P2X3 receptor inhibitory activity (Test Example 1-1, FDSS 3000, 96-well, 50 nM ATP)
# Format: cell-based
# SETUP_CONDITIONS: human P2X3 receptor in C6BU-1 cells; Test Example 1-1 (compounds I-001 to I-300)
For each of the compounds below, state its pIC50.
One number for each entry, as −log10 of the molar value.

Dear colleague, could you please provide pIC50 for the compounds listed below?
1. O=C(Nc1c[nH]/c(=N\c2ccc(Oc3ccon3)cc2)n(Cc2ccc(Cl)cc2)c1=O)C1COC1
2. O=C(Nc1c[nH]/c(=N\c2ccc(Oc3ccon3)cc2)n(Cc2ccc(Cl)cc2)c1=O)c1cn[nH]c1
3. Cc1noc(C)c1C(=O)Nc1c[nH]/c(=N\c2ccc(Oc3ccon3)cc2)n(Cc2ccc(Cl)cc2)c1=O
4. COC(=O)[C@@H](C)Cn1c(=O)cc(Nc2ccc(Oc3ccon3)cc2)n(Cc2ccc(Cl)cc2)c1=O
5. N#Cc1cccc(Oc2ccc(Nc3nc(=O)c(C(=O)NC4CCOCC4)cn3Cc3ccc(Cl)cc3)cc2)n1
6. C[C@@H](Cn1c(=O)cc(Nc2ccc(Oc3ncccc3F)cc2)n(Cc2ccc(Cl)cc2)c1=O)C(=O)O
7. NC(=O)c1c[nH]/c(=N\c2ccc(Oc3ncccc3F)cc2)n(Cc2ccc(Cl)cc2)c1=O

[7.85, 6.65, 7.85, 7.77, 8.22, 8.10, 7.57]

Dear colleague, could you please provide pIC50 for the compounds listed below?
1. CCn1c(=O)cc(Nc2ccc(Oc3ncc(C(=O)O)s3)cc2)n(Cc2ccc(Cl)cc2)c1=O
2. CCOC(=O)c1c[nH]/c(=N\c2ccc(Oc3ccon3)cc2)n(Cc2ccc(Cl)cc2)c1=O
3. CCC(=O)Nc1c[nH]/c(=N\c2ccc(Oc3ccnc(C(=O)O)c3)cc2)n(Cc2ccc(Cl)cc2)c1=O
4. O=C(Nc1c[nH]/c(=N\c2ccc(Oc3ccon3)cc2)n(Cc2ccc(Cl)cc2)c1=O)c1ccno1
5. O=C(Nc1cnc(Nc2ccc3nc(C(F)F)sc3c2)n(Cc2ccc(Cl)cc2)c1=O)C1CCOCC1
6. N#Cc1c[nH]/c(=N\c2ccc(Oc3ccc(F)cn3)cc2)n(Cc2ccc(Cl)cc2)c1=O
7. CCOC(=O)c1cccc(Oc2ccc(Nc3cc(=O)n(CC)c(=O)n3Cc3ccc(Cl)cc3)cn2)c1
8. CCn1c(=O)cc(Nc2ccc(Oc3cccc(C(N)=O)n3)c(C)c2)n(Cc2ccc(Cl)cc2)c1=O

[8.70, 7.19, 8.30, 7.11, 7.82, 6.30, 6.80, 8.40]
